Test system: YST-1
Assay: drug sensitivity score (DSS, CellTiter-Glo viability, 72 h) (DSS (dimensionless)); higher = more sensitive; extreme values may be limits of the assay
Quick reference for drug sensitivity score among some compounds

Some solved cases for reference:
INSERT INTO assay_data (compound, measurement) VALUES
  ('Cc1ccc(C(=O)Nc2ccc(Oc3cc4cnn(C)c4cc3-c3cn[nH]c3)c(F)c2)c(=O)n1-c1ccc(F)cc1 [Merestinib] (max concentration tested 1000 nM)', 1.74),
  ('O=c1cc(N2CCOCC2)oc2c(-c3ccccc3)cccc12 (max concentration tested 100000 nM)', 12),
  ('Cc1cc(-c2ncc(-c3cccnc3)cc2/C=C/c2ccccc2)cnc1-c1cccnc1 [Pyridoclax] (max concentration tested 25000 nM)', 16.5);

INPUT: Consider the compound CN(C)C(=O)c1ccc(S(=O)(=O)c2ccc(NC(=O)[C@@](C)(O)C(F)(F)F)c(Cl)c2)cc1 [AZD7545] (max concentration tested 10000 nM) . State its measured drug sensitivity score.
OUTPUT: 0

INPUT: Report drug sensitivity score for O=C(NOCC1CC1)c1ccc(F)c(F)c1Nc1ccc(I)cc1Cl (max concentration tested 10000 nM)
OUTPUT: 1.6

INPUT: Give the reported drug sensitivity score for this compound. CC(C)[C@H](C(=O)Nc1ccc(C(=O)NO)cc1)c1ccccc1 [AR-42] (max concentration tested 10000 nM)
OUTPUT: 17.8

INPUT: Look up drug sensitivity score of C[C@]12C=CC(=O)C=C1CC[C@@H]1[C@@H]2C(=O)C[C@@]2(C)[C@H]1CC[C@]2(O)C(=O)CO [Prednisone] (max concentration tested 10000 nM) and report it.
OUTPUT: 0

INPUT: Assign drug sensitivity score to the following record: CC[C@H](Nc1ncnc2[nH]cnc12)c1nc2cccc(F)c2c(=O)n1-c1ccccc1 [Idelalisib] (max concentration tested 10000 nM)
OUTPUT: 5.3

###

Measured % inhibition by item
System: STS26T
Assay: % inhibition of CellTiter-Glo viability at highest tested concentration (72 h), relative to DMSO and benzethonium chloride controls; higher = more inhibition
Report the value in % with no unit label.

INSERT INTO assay_data (compound, measurement_label, measurement) VALUES
  ('CS(=O)(=O)c1ccc(C2=C(c3ccccc3)C(=O)OC2)cc1 [Rofecoxib] (max concentration tested 10000 nM)', '% inhibition', -0.415),
  ('CCCCCOC(=O)Nc1nc(=O)n([C@@H]2O[C@H](C)[C@@H](O)[C@H]2O)cc1F [Capecitabine] (max concentration tested 10000 nM)', '% inhibition', 12),
  ('CC[C@H](Nc1ncnc2[nH]cnc12)c1nc2cccc(F)c2c(=O)n1-c1ccccc1 [Idelalisib] (max concentration tested 10000 nM)', '% inhibition', 49.3),
  ('Nc1ccccc1NC(=O)c1ccc(CNC(=O)OCc2cccnc2)cc1 [Entinostat] (max concentration tested 10000 nM)', '% inhibition', 69.3),
  ('CNNCc1ccc(C(=O)NC(C)C)cc1 [Procarbazine] (max concentration tested 10000 nM)', '% inhibition', 4.63);

INPUT: State % inhibition on STS26T. Entry: COC(=O)C[C@](O)(CCCC(C)(C)O)C(=O)O[C@@H]1C(OC)=C[C@]23CCCN2CCc2cc4c(cc2[C@H]13)OCO4 [Omacetaxine] (max concentration tested 10000 nM)
OUTPUT: 98.6

INPUT: State % inhibition (STS26T) of Nc1ccn([C@@H]2O[C@H](CO)[C@@H](O)C2(F)F)c(=O)n1 [Gemcitabine] (max concentration tested 1000 nM) .
OUTPUT: 83.8

INPUT: Provide the reported % inhibition (system: STS26T) for CCN(CC)CCNC(=O)c1c(C)[nH]c(/C=C2\C(=O)Nc3ccc(F)cc32)c1C [Sunitinib] (max concentration tested 1000 nM)
OUTPUT: 8.24

INPUT: Specify % inhibition for CC(C)(C)NC(=O)[C@H]1CC[C@H]2[C@@H]3CC[C@H]4NC(=O)C=C[C@]4(C)[C@H]3CC[C@]12C [Finasteride] (max concentration tested 10000 nM) , system STS26T.
OUTPUT: 9.35

INPUT: Consider the compound CC(=O)Nc1cccc(-n2c(=O)n(C3CC3)c(=O)c3c(Nc4ccc(I)cc4F)n(C)c(=O)c(C)c32)c1 [Trametinib] (max concentration tested 250 nM) tested on STS26T; state its % inhibition.
OUTPUT: 48.4

INPUT: Report value only: % inhibition, STS26T, Nc1ncn([C@@H]2O[C@H](CO)[C@@H](O)[C@H]2O)c(=O)n1 [Azacitidine] (max concentration tested 10000 nM)
OUTPUT: 29.9

INPUT: Enter measured % inhibition, system STS26T, for the compound shown: CC(C)n1cnc2c(NCCc3ccc(O)cc3)nc(-c3csc4ccccc34)nc21 [StemRegenin 1] (max concentration tested 10000 nM)
OUTPUT: 41.7

INPUT: Send back STS26T % inhibition of C[C@]1(c2nc3c(C(N)=O)cccc3[nH]2)CCCN1 [Veliparib] (max concentration tested 10000 nM) only.
OUTPUT: 10.6

INPUT: Jot down % inhibition (STS26T) of CN(C)C/C=C/C(=O)Nc1cc2c(Nc3ccc(F)c(Cl)c3)ncnc2cc1O[C@H]1CCOC1 [Afatinib] (max concentration tested 1000 nM) .
OUTPUT: 12.7

INPUT: Give % inhibition; test system STS26T; compound Cc1nc(C(=O)NCC(=O)O)c(O)c2ccc(Oc3ccccc3)cc12 [FG-4592] (max concentration tested 10000 nM)
OUTPUT: 0.0946

INPUT: Fill: % inhibition (STS26T) for this compound COc1cc([C@@H]2c3cc4c(cc3[C@@H](O[C@@H]3O[C@@H]5CO[C@@H](C)O[C@H]5[C@H](O)[C@H]3O)[C@H]3COC(=O)[C@H]23)OCO4)cc(OC)c1O [Etoposide] (max concentration tested 10000 nM)
OUTPUT: 68

INPUT: Report % inhibition under test system STS26T for NC(=O)NO [Hydroxyurea] (max concentration tested 100000 nM) .
OUTPUT: 3.66

INPUT: Check STS26T data and give % inhibition for COc1cccc2c1C(=O)c1c(O)c3c(c(O)c1C2=O)C[C@@](O)(C(C)=O)C[C@@H]3O[C@H]1C[C@H](N)[C@H](O)[C@H](C)O1 [Daunorubicin] (max concentration tested 1000 nM) .
OUTPUT: 98.5

INPUT: Param request: % inhibition | system STS26T | item Nc1nc(Cl)nc2c1ncn2[C@H]1C[C@H](O)[C@@H](CO)O1 [Cladribine] (max concentration tested 1000 nM)
OUTPUT: 52.5

INPUT: Param request: % inhibition | system STS26T | item CNCc1ccc(-c2[nH]c3cc(F)cc4c3c2CCNC4=O)cc1 [Rucaparib] (max concentration tested 10000 nM)
OUTPUT: 4.71

INPUT: Answer briefly: % inhibition recorded on STS26T for COc1cc2c(NC3CCN(C(C)C)CC3)nc(N3CCC(F)(F)CC3)nc2cc1OCCCN1CCCC1 [UNC0642] (max concentration tested 10000 nM)
OUTPUT: 96.5

###

Parameter: drug sensitivity score. Scope: all listed entries.
Test system: HSC2 (primary human Schwann cells)
Experiment: drug sensitivity score (DSS, CellTox-Green cytotoxicity, 72 h) (DSS (dimensionless)); higher = more cytotoxic; extreme values may be limits of the assay
// no unit, no text: just the number

Reference set, count: 4
INSERT INTO measurements (molecule, measurement) VALUES
  ('CC[C@@]1(O)C(=O)OCc2c1cc1n(c2=O)Cc2cc3c(CN(C)C)c(O)ccc3nc2-1 [Topotecan] (max concentration tested 10000 nM)', 18.4),
  ('CCNC(=O)CCC/C=C\C[C@@H]1[C@@H](/C=C/[C@@H](O)CCc2ccccc2)[C@H](O)C[C@@H]1O [Bimatoprost] (max concentration tested 5500 nM)', 0),
  ('COc1cc2/c(=N/c3ccc(Br)cc3F)nc[nH]c2cc1OCC1CCN(C)CC1 [Vandetanib] (max concentration tested 1000 nM)', 0),
  ('CC(C)c1c(C(=O)Nc2ccccc2)c(-c2ccccc2)c(-c2ccc(F)cc2)n1CC[C@@H](O)C[C@@H](O)CC(=O)O [Atorvastatin] (max concentration tested 10000 nM)', 19.6);

INPUT: Answer with the recorded drug sensitivity score for the molecule listed here: Nc1nccc(-c2c(-c3ccc(F)cc3)ncn2C2CCCCC2)n1 (max concentration tested 10000 nM)
OUTPUT: 0

INPUT: Answer with reported drug sensitivity score of C=CCN(/C=C1/C(=O)O[C@H](COC)[C@@]2(C)C1=C(O)C(=O)C1=C2[C@H](OC(C)=O)C[C@]2(C)C(=O)CC[C@@H]12)CC=C [Sonolisib] (max concentration tested 10000 nM)
OUTPUT: 0

INPUT: // Input: Nc1ccccc1NC(=O)c1ccc(CNC(=O)OCc2cccnc2)cc1 [Entinostat] (max concentration tested 10000 nM) . Output its drug sensitivity score only.
OUTPUT: 0

INPUT: Give drug sensitivity score for Cc1sc2c(c1C)C(c1ccc(Cl)cc1)=N[C@H](CC(=O)OC(C)(C)C)c1nnc(C)n1-2 [(-)JQ1] (max concentration tested 10000 nM)
OUTPUT: 0

INPUT: Quick one: give measured drug sensitivity score for CC(C)n1cnc2c(NCCc3ccc(O)cc3)nc(-c3csc4ccccc34)nc21 [StemRegenin 1] (max concentration tested 10000 nM)
OUTPUT: 0

INPUT: Dear colleague, please send me the reported drug sensitivity score for CCc1cncnc1N1CCN(Cc2nc3ccc(C(F)(F)F)cc3[nH]2)CC1 (max concentration tested 10000 nM) when you can.
OUTPUT: 0

INPUT: Note down drug sensitivity score recorded for O=P1(NCCCl)OCCCN1CCCl (configuration not stated) [Ifosfamide] (max concentration tested 10000 nM)
OUTPUT: 0

INPUT: Please look at this molecule and report its drug sensitivity score: O=c1[nH]cc(F)c(=O)[nH]1 [Fluorouracil] (max concentration tested 10000 nM)
OUTPUT: 0
